Hello, the source for this data is ChEMBL document CHEMBL1961873, in case you need it.

Measured inhibition, listed per entry for reference.
- target-or-test-system: Homeodomain-interacting protein kinase 4 (Homo sapiens);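 note: values are mean percent inhibition of HIPK4 from the GSK PKIS kinase screen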
- test-conditions: at 1 µM
Write down the numeric answer in % and omit the unit.

Which value of inhibition has been reported for NS(=O)(=O)c1cccc(-c2ccc3c(NC(=O)C4CC4)n[nH]c3c2)c1 in the records? 1.04

Can you share its inhibition? I mean this compound: CCCN1CCC(Oc2cc(Nc3nc(Nc4cccc(F)c4C(N)=O)c4cc[nH]c4n3)c(OC)cc2Cl)CC1 24.8

* * *

- target-or-test-system: Casein kinase I isoform gamma-2 (Homo sapiens)
- test-conditions: at 1 µM
- Description: GSK_PKIS: CK1-g2 mean inhibition at 1 uM [Nanosyn]
Quick reference for inhibition among some compounds
The figure you give is taken to be in %; do not add the unit.

Solved entries (count: 3):
input-smiles	inhibition / %
CS(=O)(=O)CCNCc1ccc(-c2ccc3ncnc(Nc4ccc(OCc5ccccc5)c(Cl)c4)c3c2)o1	0.01
CCn1c(-c2nonc2N)nc2cncc(C(=O)N3CCNCC3)c21	4.57
CCc1cccc(NC(=O)Nc2ccc(Oc3ccc4nc(NC(=O)OC)[nH]c4c3)cc2)c1	0.48

For Casein kinase I isoform gamma-2 (Homo sapiens), provide inhibition of COC(=O)Nc1nc2cc(Oc3ccc(NC(=O)Nc4cccc(C(=O)O)c4)cc3)ccc2[nH]1 please. -2.28
